# Tested on: Mus musculus
# protocol: Analgesic activity in Mus musculus […] albino (mouse) at 10 mg/kg, po measured at 1 hr by tail flick test (reference value: 5 +/- 0.49%)
Criterion: Activity strictly less than 40%. Met: T. Not met: F.

compound | measured.on | assigned.label
Cc1nc2ccccc2c(=O)n1-c1ccc(NC(=O)CN/N=C/c2ccc([N+](=O)[O-])cc2)cc1 | Mus musculus | T
O=C([O-])Cc1ccccc1Nc1c(Cl)cccc1Cl.[Na+] [DICLOFENAC SODIUM] | Mus musculus | F
Cc1ccc(/C=N/NCC(=O)Nc2ccc(-n3c(C)nc4ccccc4c3=O)cc2)cc1 | Mus musculus | F
Cc1nc2ccccc2c(=O)n1-c1ccc(NC(=O)CN/N=C/c2ccc(C(F)(F)F)cc2)cc1 | Mus musculus | F
Cc1nc2ccccc2c(=O)n1-c1ccc(NC(=O)CN/N=C\c2c[nH]c3ccccc23)cc1 | Mus musculus | T
Cc1nc2ccccc2c(=O)n1-c1ccc(NC(=O)CN/N=C/c2ccc(Cl)cc2)cc1 | Mus musculus | F
COc1ccc(/C=N/NCC(=O)Nc2ccc(-n3c(C)nc4ccccc4c3=O)cc2)cc1 | Mus musculus | T
Cc1nc2ccccc2c(=O)n1-c1ccc(NC(=O)CN/N=C/c2ccccc2)cc1 | Mus musculus | T
Cc1nc2ccccc2c(=O)n1-c1ccc(NC(=O)CN/N=C/c2ccc(O)cc2)cc1 | Mus musculus | T
Cc1ccc(/C=N\NCC(=O)Nc2ccc(-n3c(C)nc4ccccc4c3=O)cc2)o1 | Mus musculus | T
Cc1nc2ccccc2c(=O)n1-c1ccc(NC(=O)CN/N=C/c2ccc(F)cc2)cc1 | Mus musculus | T

* * *

# System: Escherichia coli
# protocol: Antibacterial activity against Escherichia coli ATCC 25922 assessed as growth inhibition after 24 hr by agar streak dilution method
# Assay type: functional
# measurement.conditions: ATCC 25922, 24 h
# MIC per record follows

compound.structure.string | MIC (µg/mL)
Cc1nc2ccccc2c(=O)n1-c1ccc(NC(=O)CN/N=C/c2ccc(O)cc2)cc1 | 125
Cc1nc2ccccc2c(=O)n1-c1ccc(NC(=O)CN/N=C\c2c[nH]c3ccccc23)cc1 | 62.5
Cc1nc2ccccc2c(=O)n1-c1ccc(NC(=O)CN/N=C/c2ccc(C(F)(F)F)cc2)cc1 | 31.2
COc1ccc(/C=N/NCC(=O)Nc2ccc(-n3c(C)nc4ccccc4c3=O)cc2)cc1 | 125
Cc1nc2ccccc2c(=O)n1-c1ccc(NC(=O)CN/N=C/c2ccccc2)cc1 | 62.5
Cc1ccc(/C=N/NCC(=O)Nc2ccc(-n3c(C)nc4ccccc4c3=O)cc2)cc1 | 62.5

* * *

# Test system: Rattus norvegicus
# protocol: Ulcerogenecity in Rattus norvegicus Wistar albino (rat) stomach assessed as ulcer index administered 20 mg/kg, ip qd for 3 days measured on day 4 (reference value: 0.13 +/- 0.05 no unit)
# Assay type: ADME, organism-based
# Set-up: dose 20 mg/kg, route intraperitoneal
# measurement.conditions: in vivo, 72 h
measured.attribute: UI (no unit)

compound.structure.string | test.value
COc1ccc(/C=N/NCC(=O)Nc2ccc(-n3c(C)nc4ccccc4c3=O)cc2)cc1 | 0.86
Cc1nc2ccccc2c(=O)n1-c1ccc(NC(=O)CN/N=C/c2ccc(C(F)(F)F)cc2)cc1 | 0.55
Cc1nc2ccccc2c(=O)n1-c1ccc(NC(=O)CN/N=C/c2ccc(F)cc2)cc1 | 0.64
Cc1nc2ccccc2c(=O)n1-c1ccc(NC(=O)CN/N=C/c2ccc(Cl)cc2)cc1 | 0.59
Cc1ccc(/C=N\NCC(=O)Nc2ccc(-n3c(C)nc4ccccc4c3=O)cc2)o1 | 0.77
Cc1ccc(/C=N/NCC(=O)Nc2ccc(-n3c(C)nc4ccccc4c3=O)cc2)cc1 | 0.61
Cc1nc2ccccc2c(=O)n1-c1ccc(NC(=O)CN/N=C/c2ccc([N+](=O)[O-])cc2)cc1 | 0.8
Cc1nc2ccccc2c(=O)n1-c1ccc(NC(=O)CN/N=C/c2ccc(O)cc2)cc1 | 0.82
Cc1nc2ccccc2c(=O)n1-c1ccc(NC(=O)CN/N=C\c2c[nH]c3ccccc23)cc1 | 0.72
Cc1nc2ccccc2c(=O)n1-c1ccc(NC(=O)CN/N=C/c2ccccc2)cc1 | 0.7
